Please go through the items and note down their KDR tyrosine phosphorylation in HUVEC, Maximum Inhibition at 100 nM (% Inhibition), N = 2.
Biological target: human KDR (human, UniProt P35968 20-1356)
Sequence (P35968 20-1356): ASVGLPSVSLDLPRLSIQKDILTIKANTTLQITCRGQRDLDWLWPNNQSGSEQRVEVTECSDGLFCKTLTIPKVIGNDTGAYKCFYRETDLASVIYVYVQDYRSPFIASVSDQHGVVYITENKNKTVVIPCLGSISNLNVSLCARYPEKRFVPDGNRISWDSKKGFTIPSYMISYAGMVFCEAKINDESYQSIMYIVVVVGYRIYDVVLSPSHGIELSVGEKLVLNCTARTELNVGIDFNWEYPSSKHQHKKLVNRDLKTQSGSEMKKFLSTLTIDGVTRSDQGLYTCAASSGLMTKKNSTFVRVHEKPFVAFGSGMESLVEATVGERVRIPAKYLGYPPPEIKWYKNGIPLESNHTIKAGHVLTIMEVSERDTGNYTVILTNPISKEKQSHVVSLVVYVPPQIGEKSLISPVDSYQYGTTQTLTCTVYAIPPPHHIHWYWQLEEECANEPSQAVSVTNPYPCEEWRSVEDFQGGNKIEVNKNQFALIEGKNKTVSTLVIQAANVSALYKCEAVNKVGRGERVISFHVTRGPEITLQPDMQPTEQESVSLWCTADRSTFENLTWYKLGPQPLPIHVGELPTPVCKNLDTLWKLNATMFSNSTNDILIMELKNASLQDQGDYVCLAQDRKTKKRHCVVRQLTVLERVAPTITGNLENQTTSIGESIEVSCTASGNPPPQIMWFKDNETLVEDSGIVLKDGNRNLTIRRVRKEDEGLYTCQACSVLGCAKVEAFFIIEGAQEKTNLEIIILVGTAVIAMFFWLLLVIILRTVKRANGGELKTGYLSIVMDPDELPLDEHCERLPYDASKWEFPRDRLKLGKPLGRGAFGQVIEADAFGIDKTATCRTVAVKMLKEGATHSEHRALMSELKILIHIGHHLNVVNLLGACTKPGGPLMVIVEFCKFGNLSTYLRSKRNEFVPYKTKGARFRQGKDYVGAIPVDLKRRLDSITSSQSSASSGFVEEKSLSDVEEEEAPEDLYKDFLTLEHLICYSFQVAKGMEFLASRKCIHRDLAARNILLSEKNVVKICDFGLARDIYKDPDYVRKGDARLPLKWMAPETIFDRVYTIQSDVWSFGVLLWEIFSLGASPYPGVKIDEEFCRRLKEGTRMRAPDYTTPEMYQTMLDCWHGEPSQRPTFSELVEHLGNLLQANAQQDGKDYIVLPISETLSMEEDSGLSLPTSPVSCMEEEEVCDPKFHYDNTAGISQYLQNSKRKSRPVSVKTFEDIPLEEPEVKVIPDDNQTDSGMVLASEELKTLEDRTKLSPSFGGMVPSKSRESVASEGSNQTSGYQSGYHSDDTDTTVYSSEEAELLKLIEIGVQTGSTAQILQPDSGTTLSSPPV
Assay: cell-based or functional assay
Lab book: enter the figure in %, no units written.

Exam item: Check the records and state KDR tyrosine phosphorylation in HUVEC, Maximum Inhibition at 100 nM (% Inhibition), N = 2 for 29H3 (antibody, V domains shown, Fully human monoclonal antibody from a XenoMouse hybridoma (IgG2 or IgG4 strain), purified) VH: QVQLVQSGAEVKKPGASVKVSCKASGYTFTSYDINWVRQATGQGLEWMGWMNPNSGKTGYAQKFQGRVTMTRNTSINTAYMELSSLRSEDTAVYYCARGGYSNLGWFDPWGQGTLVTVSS VL: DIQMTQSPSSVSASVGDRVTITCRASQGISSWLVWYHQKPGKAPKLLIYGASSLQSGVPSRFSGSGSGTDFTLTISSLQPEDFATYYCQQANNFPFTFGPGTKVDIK
Marked response: 30

Exam item: Check the records and state KDR tyrosine phosphorylation in HUVEC, Maximum Inhibition at 100 nM (% Inhibition), N = 2 for 33B1 (antibody, V domains shown, Fully human monoclonal antibody from a XenoMouse hybridoma (IgG2 or IgG4 strain), purified) VH: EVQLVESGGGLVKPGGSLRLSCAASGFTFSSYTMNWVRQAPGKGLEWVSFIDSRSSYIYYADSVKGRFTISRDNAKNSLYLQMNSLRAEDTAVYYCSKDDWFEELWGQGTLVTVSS VL: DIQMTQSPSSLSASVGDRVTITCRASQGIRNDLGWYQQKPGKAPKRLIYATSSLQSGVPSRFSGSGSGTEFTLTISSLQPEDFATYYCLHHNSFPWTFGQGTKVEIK
Marked response: 86
